test system: IL17A; experiment: skin Resident Immune Cell Assay (sRICA), Th17 model, IL17A protein in media; assay type: cell-based; conditions: 100 uM solution in 1% DMSO/OD applied topically to human skin; media collected 24 hours after Th17 activation
Decide by inhibition at 100 µM: equal to or exceeding 40% means Y, less means N.

Known results for compounds:
INSERT INTO results (item_smiles, system, group_label) VALUES
  ('COc1ccc2c(c1)CCN(C(=O)Cc1cc(O)no1)[C@H]2C(=O)Nc1cc(F)c2c(c1)CCC2(C)C', 'IL17A', 'N'),
  ('COc1ccc2c(n1)CCN(C(=O)Cc1cc(O)no1)[C@H]2C(=O)Nc1ccc(C(C)(C)C)c(F)c1', 'IL17A', 'Y'),
  ('COCc1ccc([C@@H](NC(=O)[C@H]2CNC(=O)C2)C(=O)Nc2cc(F)c(C(C)(C)C)c(F)c2)cc1', 'IL17A', 'Y'),
  ('COCc1ccc([C@@H](NC(=O)[C@@H]2CNC(=O)C2)C(=O)Nc2ccc(C(C)(C)C)c(F)c2)cc1', 'IL17A', 'N'),
  ('COCc1ccc([C@@H](NC(=O)Cn2cnccc2=O)C(=O)Nc2ccc(C(C)(C)C)c(F)c2)cc1', 'IL17A', 'Y');

Ask: State whether the measured inhibition at 100 µM reaches 40%, counting equality as reaching it, for COCc1ccc([C@@H](NC(=O)Cc2nnc(C)o2)C(=O)Nc2ccc(C(C)(C)C)c(F)c2)cc1
Reply: Y

Ask: Is inhibition at 100 µM for CC(C)n1c(=O)n(CC2CC2)c(=O)c2cc(NC(=O)N3CCC[C@@H](NC(=O)c4cc(F)ccc4F)C3)c(F)cc21 at or above 40%?
Reply: Y

====

Would you kindly list inhibition at 100 µM for each of these compounds?
tested on: IL17A; assay: skin Resident Immune Cell Assay (sRICA), Th17 model, IL17A protein in media; format: cell-based; conditions: 100 uM solution in 1% DMSO/OD applied topically to human skin; media collected 24 hours after Th17 activation
Numbers only, in %.

INSERT INTO results (compound, value_unit, numeric_readout) VALUES
  ('COCc1ccc2c(c1)CCN(C(=O)c1cc(O)no1)[C@H]2C(=O)Nc1cc(F)c2c(c1)CCC2(C)C', '%', 59.1),
  ('CC(C)(C)c1ccc(NC(=O)[C@H](NC(=O)C(O)C(F)(F)F)C2CCOCC2)cc1Cl (stereo partly drawn)', '%', 71.3),
  ('COCC(C)(C)c1ccc(NC(=O)[C@H]2c3ccc(OC)cc3CCN2C(=O)c2cc(O)no2)cc1F', '%', 55);

Give inhibition at 100 µM for each of the items listed below.
1. CCOc1ccc2c(c1)CCN(C(=O)Cc1cc(O)no1)[C@H]2C(=O)Nc1cc(F)c2c(c1)CCC2(C)C
2. COc1ccc2c(c1)CCN(C(=O)c1cc(O)no1)[C@H]2C(=O)Nc1ccc(C(C)(C)C)c(F)c1 (stereo in doubt)

Reply:
[67.9, 36]

I have 4 compounds here; please give me inhibition at 100 µM for each one.
1. COc1ccc2c(c1)CCN(C(=O)Cc1cc(O)no1)[C@H]2C(=O)Nc1cc(F)c(C(C)(C)COCC2CC2)c(F)c1
2. COc1ccc2c(c1)CCN(C(=O)c1cc(O)no1)[C@H]2C(=O)Nc1cc(F)c(C(C)(C)COCC(F)F)c(F)c1
3. COc1ccc2c(n1)CCN(C(=O)c1cc(O)no1)[C@H]2C(=O)Nc1cc(F)c2c(c1)CCC2(C)C
4. COc1ccc2c(n1)CCN(C(=O)Cc1cc(O)no1)[C@H]2C(=O)Nc1cc(F)c2c(c1)CCC2(C)C

Reply:
1: 61.7; 2: 30.3; 3: 46.9; 4: 19.2

All values here come from patent US20220409643A1.
